The values you see were collected from the supplement of paper PMC9233669.

Tested on: biotinyl-Val-oxazolone
Assay Remarks: self-aminoacylation, catalytic enhancement (BVO) (fold over background); higher = more active; k-Seq, kA / k0A0; sequences stand for … in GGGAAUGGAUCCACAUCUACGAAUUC…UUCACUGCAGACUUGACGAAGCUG
This sample holds only a part of the variants without activity.
Observed Property: self-aminoacylation
Answer with a bare number; do not write a unit.

Worked cases, answers included:
UAGUUUGCUAAUAAUCGCAAG [Fam3.1 aminoacylation ribozyme variant] = 1.12
CUACUUCAAAUAAUCGGUCCG [Fam1A.1 aminoacylation ribozyme variant] = 0.657
AUUCACCUGCGUCAUCGGGUG [Fam2.2 aminoacylation ribozyme variant] = 5.41
AUCCACCUAGGUCAUCGGGAG [Fam2.2 aminoacylation ribozyme variant] = 2.17
AAUACCCUGAUCAUCGAGUGA [Fam2.1 aminoacylation ribozyme variant] = 3.21

Note: attention shifts to another entry.
Value of self-aminoacylation reported for the sequence AUUACCCCGGUCAUCGAGUGG [Fam2.1 aminoacylation ribozyme variant] is 1.13
